# TESTED_ON: CYP3A4 (Homo sapiens, UniProt P08684)
# Sequence (P08684 whole entry): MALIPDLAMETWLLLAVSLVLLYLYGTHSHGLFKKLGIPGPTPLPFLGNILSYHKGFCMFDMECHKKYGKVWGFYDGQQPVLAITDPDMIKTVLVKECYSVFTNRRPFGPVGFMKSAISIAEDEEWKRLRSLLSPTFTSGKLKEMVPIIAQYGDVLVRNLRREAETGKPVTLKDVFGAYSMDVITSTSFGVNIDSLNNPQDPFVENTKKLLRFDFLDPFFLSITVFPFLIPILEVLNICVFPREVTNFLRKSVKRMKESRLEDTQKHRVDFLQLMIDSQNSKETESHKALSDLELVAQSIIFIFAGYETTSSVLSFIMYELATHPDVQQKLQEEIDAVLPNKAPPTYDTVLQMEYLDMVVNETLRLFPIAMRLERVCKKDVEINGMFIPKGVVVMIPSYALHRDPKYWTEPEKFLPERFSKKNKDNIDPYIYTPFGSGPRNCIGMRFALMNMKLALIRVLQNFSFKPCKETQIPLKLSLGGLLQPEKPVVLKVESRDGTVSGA
# MEASUREMENT_DESCRIPTION: Inhibition of human CYP3A4 expressed in baculosomes assessed as remaining activity using fluorogenic substrate after 15 mins in presence of NADPH by fluorescence assay
# Format: ADME
# Parameters: concentration or dose not given beside the values
# PARTICULARS: recombinant human CYP3A4 in baculosomes, probe fluorogenic substrate, read-out: Activity
Each item that follows carries a reported activity at 0.25 h.
Write your answer as a measured quantity: the number, then the unit.

Before answering, review these 5 worked examples.
- COMPOUND: "CN(CCCc1nc2ccccc2[nH]1)C(=O)C1C2CN(CCc3ccc(C(F)(F)F)cc3)CC21 (stereo unspecified)"
  TESTED_ON: "CYP3A4 (Homo sapiens, UniProt P08684)"
  ENDPOINT_VALUE: "61.4%"
- COMPOUND: "CC(C)Cc1cc(C(=O)NCC2C3CN(CCC(C)(C)C)CC23)nn1-c1ccccc1 (stereo unspecified)"
  TESTED_ON: "CYP3A4 (Homo sapiens, UniProt P08684)"
  ENDPOINT_VALUE: "130%"
- COMPOUND: "CC(C)Cc1cc(CNC(=O)C2C3CN(Cc4ccccc4)CC32)nn1-c1ccccc1 (stereo unspecified)"
  TESTED_ON: "CYP3A4 (Homo sapiens, UniProt P08684)"
  ENDPOINT_VALUE: "102%"
- COMPOUND: "CC(C)Cc1cc(CNC(=O)C2C3CN(CCC(C)(C)C)CC32)nn1-c1ccccc1 (stereo unspecified)"
  TESTED_ON: "CYP3A4 (Homo sapiens, UniProt P08684)"
  ENDPOINT_VALUE: "82.3%"
- COMPOUND: "CC(C)Cc1cc(CNC(=O)C2C3CN(C(=O)Cc4ccccc4)CC32)nn1-c1ccccc1 (stereo unspecified)"
  TESTED_ON: "CYP3A4 (Homo sapiens, UniProt P08684)"
  ENDPOINT_VALUE: "80.4%"

The compound listed as CC(C)Cc1cc(CNC(=O)C2C3CN(C(=O)c4ccccc4)CC32)nn1-c1ccccc1 (stereo unspecified) shows activity at 0.25 h equal to 74.6%
